Assay: chemical genetic growth profiling, strain panel (AID 1159580);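 also: tested at 20 µM; growth read once vehicle control cultures reached saturation at 30 °C; 1 = growth at the plate median or of vehicle wells; lower values mean less growth of the strain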
Details: S. cerevisiae deletion strains, growth OD, locus YNR049C, strain mso1, hits give low values
The whole screen tested about 5,500 compounds, of which about 2,000 (36%) were called active. Not shown: some 18% with an inconclusive outcome. Some of the results follow.
quantity-name: normalized growth

C=C[C@@](C)(O)CCC1C(=C)C[C@H](O)C2C(C)(C)CCCC12C (stereo partly specified): 0.994
C=C[C@@](C)(O)CCC1C(=C)CCC2[C@@](C)(CO)CCC[C@]12C (stereo partly specified): 1.06
COc1ccc([C@H]2Oc3c(I)c(OC)cc(OC)c3C[C@@H]2O)cc1OC: 1.01
O=C(c1ccc(OCCN2CCCCC2)cc1)c1c(-c2ccc(O)cc2)sc2cc(O)ccc12: 1.02
c1ccc2c(c1)CCCC2C1=NCCN1 (stereo unspecified): 1.02
Oc1cc(O)c2c(c1)O[C@H](c1ccc(O)c(O)c1)[C@H](O)C2: 1.01

###

Experiment: chemical genetic growth profiling, strain panel (AID 1159580);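 also: tested at 20 µM; growth read once vehicle control cultures reached saturation at 30 °C; 1 = growth at the plate median or of vehicle wells; lower values mean less growth of the strain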
Conditions: S. cerevisiae deletion strains, growth OD, locus YDR195W, strain ref2
The campaign covered roughly 5,500 compounds. About 2,000 (36%) were called active. Not shown: some 18% with an inconclusive outcome. This is one part of the list.
quantity-name: normalized growth

COc1ccc2c(c1)OC/C(=C\c1ccc(OC)c(O)c1)C2=O: 1.11
CCC(C)C(=O)O[C@@H]1C[C@@]2(C)[C@H](c3ccoc3)OC(=O)CC23OC2(C)OC34[C@H](OC(=O)C(C)C)[C@@]3(O)[C@@H](OC(=O)C5(C)OC5C)[C@@]5(C)C[C@]3(O)[C@@](C)([C@H]5CC(=O)OC)C14O2 (stereo partly specified): 1.03
COC(=O)C[C@H]1C2(C)CC34OC5(C)O[C@@]6([C@H](OC(C)=O)C(OC(C)=O)[C@]7(C)C(/C(=C(/O)C(C)C)C(=O)O[C@H]7c7ccoc7)[C@@]6(O5)[C@H](OC(C)=O)[C@@]3(O)C2OC(=O)C(C)C)[C@]14C (stereo partly specified): 0.959
CCC(C)C(=O)O[C@@H]1C[C@@]2(C)[C@H](c3ccoc3)OC(=O)CC23OC2(C)O[C@]14[C@]1(C)[C@@H](CC(=O)OC)C5(C)CC1(O)[C@](O)(C5OC(=O)C1(C)OC1C)[C@@H](OC(C)=O)[C@]34O2 (stereo partly specified): 0.969
COc1ccc2c(c1)OC/C(=C/c1ccc(OC)c(OC)c1)C2=O: 1.1
COC(=O)C[C@H]1C2(C)CC34OC5(C)O[C@@]6([C@H](OC)C(OC(=O)C(C)C)[C@]7(C)C(/C(=C(/OC)C(C)C)C(=O)O[C@H]7c7ccoc7)[C@@]6(O5)[C@H](OC)[C@@]3(OC)C2OC(C)=O)[C@]14C (stereo partly specified): 0.986

###

Experiment: chemical genetic growth profiling, strain panel (AID 1159580);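 also: tested at 20 µM; growth read once vehicle control cultures reached saturation at 30 °C; 1 = growth at the plate median or of vehicle wells; lower values mean less growth of the strain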
Conditions: S. cerevisiae deletion strains, growth OD, locus YPL055C, strain LGE1
Screen size: about 5,500 compounds; about 2,000 (36%) were called active. Roughly 18% stayed inconclusive and do not appear here. Rule as the data show it: active = normalized growth mostly below about 0.91 (no sharp cut-off); inconclusive = no clear call, values can overlap the other calls; inactive = mostly above about 0.92. The list shows a part of the results.
Possible outcomes: active, inactive

CCCCCCCCCCCCCCCCCCNC(=O)OCC(COP(=O)([O-])OCC[n+]1ccsc1)OC (stereo not drawn): inactive
CCCCCCC(C)OC(=O)COc1cc(Cl)c(Cl)cc1Cl (stereo not drawn): inactive
CCOC(=O)N=Nc1c(O)[nH]c2ccc(F)cc12: inactive
N[C@H]1CONC1=O: inactive
O=C(O)CCCc1ccccc1: inactive
CCOC(=O)Cc1csc(N=CNO)n1: inactive
N[C@@H](Cc1ccc(N(CCCl)CCCl)cc1)C(=O)O: inactive
COc1ccc(C2CNC(=O)C2)cc1OC1CCCC1 (stereo not drawn): inactive
CCN1CCCC(OC(=O)C(c2ccccc2)c2ccccc2)C1 (stereo not drawn): inactive
CCC(C)C(=O)O[C@@H]1C[C@@]2(C)[C@H](c3ccoc3)OC(=O)CC23OC2(C)OC34[C@H](OC(=O)C(C)C)[C@@]3(O)[C@@H](OC(=O)C5(C)OC5C)[C@@]5(C)C[C@]3(O)[C@@](C)([C@H]5CC(=O)OC)C14O2 (stereo partly drawn): inactive
O=C(O)[C@@H]1CCN1: inactive
O=C(NNC(=S)Nc1cccc(Cl)c1)c1ccncc1: inactive
C/C(=C\C(=O)Nc1ccc(F)cc1)Nc1ccc(F)cc1: inactive
CCCCCCCC/C=C\CCCCCCCC(=O)NCCc1ccc(O)c(O)c1: inactive
c1ccc(OCCOc2ccccn2)nc1: inactive
Cc1ccc(C(=O)Nc2ccc(S(=O)(=O)O)c3cc(S(=O)(=O)O)cc(S(=O)(=O)O)c23)cc1NC(=O)c1cccc(NC(=O)Nc2cccc(C(=O)Nc3cc(C(=O)Nc4ccc(S(=O)(=O)O)c5cc(S(=O)(=O)O)cc(S(=O)(=O)O)c45)ccc3C)c2)c1: inactive
CCOC(=O)CNc1ccc(F)cc1: inactive
Cc1nn(C)c(C)c1[N+](=O)[O-]: inactive
CCCCCCCCCCCCCCCC(=O)NCC(COP(=O)([O-])OCC[N+](C)(C)C)OCC (stereo not drawn): active
CC(C)(C)S(=O)(=O)/C(C#N)=C/c1ccc(F)cc1F: inactive
O=[N+]([O-])c1ccc(OCCO)c([N+](=O)[O-])c1: inactive
CCCCCCCCC(=O)NCc1ccc(O)c(OC)c1: inactive
O=C(O)CSCc1ccccc1: inactive

Origin of measurements: PubChem BioAssay AID1159580
